# EXPERIMENTAL DETAILS: Acute toxicity, intravenous, Litchfield and Wilcoxon
# EXPERIMENTAL CONTEXT: mouse, in vivo, mice
// reported LD50 per item
Give just the number in mg/kg; leave the unit off.

Worked set:
• CCCCN(CCCC)CCCOc1ccc(S(=O)(=O)c2c(-c3ccccc3)cn3ccccc23)cc1C.Cl [Ex. 19] = 60
• CCCCN(CCCC)CCCOc1ccc(S(=O)(=O)c2c(C)cn3ccccc23)cc1.O=C(O)C(=O)O [Ex. 6] = 31
• CCCCN(CCCC)CCCOc1ccc(S(=O)(=O)c2c(CC)cn3ccccc23)cc1C.Cl [Ex. 9] = 55
• CCc1cn2ccccc2c1S(=O)(=O)c1ccc(OCCCN(C)CCc2ccc(OC)c(OC)c2)cc1 [Ex. 28] = 32

query: What measured LD50 goes with CCCN(CCC)CCCOc1ccc(S(=O)(=O)c2c(CC)cn3ccccc23)cc1.Cl [Ex. 7] ?
result: 26

====

# EXPERIMENTAL DETAILS: Acute toxicity, intravenous, Litchfield and Wilcoxon
# EXPERIMENTAL CONTEXT: mouse, in vivo, mice
Consider the following compounds and their measured LD50 readings.
The response must be a number in mg/kg with no trailing unit.

- CCCCN(CCCC)CCCOc1ccc(C(=O)c2c(CC)cc3ccccn23)cc1 [Butoprozine, reference compound]: 23

query: Fill in the blank: the reported LD50 of COc1ccc(CCN(C)CCCOc2ccc(S(=O)(=O)c3c(C(C)C)cn4ccccc34)cc2)cc1OC [Ex. 30] is ____.
result: 140

query: What value of measured LD50 is listed for CCCCN(CCCC)CCCOc1ccc(S(=O)(=O)c2c(CCC)cn3ccccc23)cc1.O=C(O)C(=O)O [Ex. 11] ?
result: 28

query: # query: LD50 of entry CCCCc1cn2ccccc2c1S(=O)(=O)c1ccc(OCCCN(CCCC)CCCC)cc1.O=C(O)C(=O)O [Ex. 13]
result: 31

query: // returns reported LD50 for input CCCCN(CCCC)CCCOc1ccc(S(=O)(=O)c2c(-c3ccccc3)cn3ccccc23)cc1.Cl [Ex. 18]
result: 35
